# condition details: DPPH radical solution, 30 min
# Description: Antioxidant activity assessed as DPPH radical scavenging activity incubated in dark for 30 mins by spectrophotometry
readout label: IC50

* O=C(/C=C/c1ccc(O)cc1)NCCC1CCN(Cc2ccccc2)CC1 | 936 µM
* O=C(/C=C/c1ccc(O)cc1)CC(=O)NC1CCN(Cc2ccccc2)CC1 | 890 µM
* COc1cc(/C=C/C(=O)NC2CCN(Cc3ccccc3)CC2)ccc1O | 32.5 µM
* COc1ccc(/C=C/C(=O)NCCC2CCN(Cc3ccccc3)CC2)cc1O | 764 µM
* O=C(/C=C/c1ccc(O)cc1)NC1CCN(Cc2ccccc2)CC1 | 980 µM

Now, please, on to the next compound.
Ask: So what does the record say about IC50 for O=C(/C=C/c1ccccc1O)NCCC1CCN(Cc2ccccc2)CC1 ?
Result: 977 µM

----------
Listed below: Ratio IC50 values for each entry.
# Species: Homo sapiens
# method summary: Selectivity index, ratio of IC50 for human serum butyrylcholinesterase to IC50 for human erythrocytes acetylcholinesterase

Recorded results for 5 molecules are shown here.
- COc1ccc(/C=C/C(=O)NCCC2CCN(Cc3ccccc3)CC2)cc1O: 1.95
- COc1cccc(/C=C/C(=O)NCCC2CCN(Cc3ccccc3)CC2)c1: 2.09
- COc1cc(/C=C/C(=O)NCCC2CCN(Cc3ccccc3)CC2)cc(OC)c1OC: 2.86
- O=C(/C=C/c1ccc([N+](=O)[O-])cc1)NCCC1CCN(Cc2ccccc2)CC1: 12.5
- COc1cc(/C=C/C(=O)NCCC2CCN(Cc3ccccc3)CC2)cc(OC)c1O: 3.8

Ask: So what does the record say about Ratio IC50 for COc1ccc(/C=C/C(=O)NCCC2CCN(Cc3ccccc3)CC2)cc1OC ?
Result: 4.83

Ask: So what does the record say about Ratio IC50 for O=C(/C=C/c1ccc(O)cc1)NCCC1CCN(Cc2ccccc2)CC1 ?
Result: 0.36

Ask: So what does the record say about Ratio IC50 for O=C(/C=C/c1ccc(Cl)cc1)NCCC1CCN(Cc2ccccc2)CC1 ?
Result: 5.72

Ask: So what does the record say about Ratio IC50 for COc1cc(/C=C/C(=O)NCCC2CCN(Cc3ccccc3)CC2)ccc1OC(C)=O ?
Result: 0.72

Ask: So what does the record say about Ratio IC50 for COc1cc(/C=C/C(=O)NCCC2CCN(Cc3ccccc3)CC2)ccc1O ?
Result: 1.54

----------
# method summary: Selectivity index, ratio of IC50 for equine serum butyrylcholinesterase to IC50 for electric eel acetylcholinesterase
readout label: Ratio IC50
Returns: the value as a bare number; no unit string appended.

• O=C(/C=C/c1ccc(O)cc1)NC1CCN(Cc2ccccc2)CC1 = 2.06
• COc1cc(CCC(=O)NC2CCN(Cc3ccccc3)CC2)ccc1O = 0.949
• COc1cc(/C=C/C(=O)NC2CCN(Cc3ccccc3)CC2)ccc1O = 1.68
• O=C(/C=C/c1ccc(F)cc1)NC1CCN(Cc2ccccc2)CC1 = 1.53
• O=C(/C=C/c1ccc(O)c(O)c1)NCCC1CCN(Cc2ccccc2)CC1 = 31.9

Ask: So what does the record say about Ratio IC50 for COc1cc(/C=C/C(=O)CC(=O)NCCC2CCN(Cc3ccccc3)CC2)ccc1O ?
Result: 0.415

Ask: So what does the record say about Ratio IC50 for O=C(/C=C/c1ccccc1)NCCC1CCN(Cc2ccccc2)CC1 ?
Result: 0.718

Ask: So what does the record say about Ratio IC50 for O=C(/C=C/c1ccc([N+](=O)[O-])cc1)NC1CCN(Cc2ccccc2)CC1 ?
Result: 1.26
